experiment: qHTS of pediatric cancer cell lines to identify multiple opportunities for drug repurposing: Primary screen for MG 63 (6-TG R) cells (AID 1347105); conditions: MG 63 (6-TG R) viability, CellTiter-Glo, 48 h; series mostly up to 46 µM; also: nearly all actives have a fitted effect of over 50% in size
Results filed as inconclusive are left out. Active and inactive are the calls of the source. Calls follow the shape of the dose curve; as a rule, active = well fitted cell-killing curve with a large enough effect; inconclusive = small, poorly fitted or top-dose-only effect; inactive = no such curve, though single readings can be large or run the other way.
Can you answer with just one of these options? active, inactive

Hi, do you know how O=[N+]([O-])c1ccc([As](=O)(O)O)cc1 came out in this test?
inactive

Hi, do you know how Nc1ccc([N+](=O)[O-])cc1 came out in this test?
inactive

Hi, do you know how C#CC1(O)CCC2C3CCC4=CC(=O)CCC4(C)C3CCC21C (stereo unspecified) came out in this test?
inactive

Hi, do you know how COC(=O)[C@@H](N)CCCN=C(N)N[N+](=O)[O-] came out in this test?
inactive

Hi, do you know how CN[C@@H]1Cc2cccc3[nH]c(=O)n(c23)C1 came out in this test?
inactive

Hi, do you know how O=C(O)CNC(=O)c1c(O)c2ccccc2n(Cc2ccccc2)c1=O came out in this test?
inactive

Hi, do you know how COc1ccc2c(c1)CN(C)CC2c1ccc(Cl)c(Cl)c1 (stereo unspecified) came out in this test?
inactive

Hi, do you know how Cc1nc(-c2ccc(-c3ccc(C(=O)N4CCc5cc6c(cc54)C4(CCN(C)CC4)CO6)cc3)c(C)c2)no1 came out in this test?
inactive

Hi, do you know how O=[N+]([O-])c1c2ccccc2cc2ccccc12 came out in this test?
inactive

Hi, do you know how CC1=C(C(=O)O)N2C(=O)[C@@H](N)[C@H]2SC1 came out in this test?
inactive

Hi, do you know how CC(=O)OCC1=C(C(=O)O)N2C(=O)[C@@H](N)[C@@H]2SC1 came out in this test?
inactive

Hi, do you know how CCCCCCCCCC(CC)c1ccc(S(=O)(=O)O)cc1 (stereo unspecified) came out in this test?
inactive

Hi, do you know how C1=C2CCCN[C@H]2[C@@H]2C[C@H]1[C@@H]1CCCCN1C2 came out in this test?
inactive

Hi, do you know how COC[C@H]1OC(=O)c2coc3c2[C@@]1(C)C1=C(C3=O)[C@@H]2CC[C@H](O)[C@@]2(C)C[C@@H]1OC(C)=O came out in this test?
active

Hi, do you know how C=C[C@@H]1CN2CCC1C[C@@H]2[C@@H](O)c1ccnc2ccccc12 (stereo partly specified) came out in this test?
inactive

Hi, do you know how C[C@@]12OC(=O)[C@]1([C@@H](O)[C@@H]1C=CCCC1)NC(=O)[C@H]2CCCl came out in this test?
active

Hi, do you know how CC(O)=C(C#N)C(=O)Nc1cc(Br)ccc1Br came out in this test?
inactive

Hi, do you know how CCOC(=O)c1cncn1[C@H](C)c1ccccc1 came out in this test?
inactive

Hi, do you know how COCCOCCO came out in this test?
inactive

Hi, do you know how CC(=O)Nc1ccc(OC[C@](C)(O)C(=O)Nc2ccc([N+](=O)[O-])c(C(F)(F)F)c2)cc1 came out in this test?
inactive

Hi, do you know how CCOP(=O)(OCC)C(C)NC(=O)N(CCCl)N=O (stereo unspecified) came out in this test?
inactive

Hi, do you know how O=[N+]([O-])c1c(Cl)c(Cl)cc(Cl)c1Cl came out in this test?
inactive

Hi, do you know how CC=C(C)C(=O)O[C@H]1C(C)=C2[C@@H]3OC(=O)[C@@](C)(O)[C@@]3(O)[C@@H](OC(=O)CCC)C[C@](C)(OC(C)=O)[C@@H]2[C@@H]1OC(=O)CCCCCCC came out in this test?
active

Hi, do you know how C[C@]12CC[C@@H]3[C@@H](CCC4=CC(=O)CC[C@@H]43)[C@@H]1CC[C@@H]2OC(=O)CCc1ccccc1 came out in this test?
inactive

Hi, do you know how OCCCBr came out in this test?
inactive

Hi, do you know how Nc1ccc(Sc2ccc(N)cc2)cc1 came out in this test?
inactive

Hi, do you know how COCC1(CO)C(=O)C2CCN1CC2 (stereo unspecified) came out in this test?
active

Hi, do you know how Cc1c(N)nc([C@H](CC(N)=O)NC[C@@H](N)C(N)=O)nc1C(=O)N[C@H](C(=O)N[C@@H](C)[C@H](O)[C@@H](C)C(=O)N[C@@H](C(=O)NCCc1nc(-c2nc(C(=O)NCCC[S+](C)C)cs2)cs1)[C@@H](C)O)C(O[C@H]1O[C@H](CO)[C@H](O)[C@@H](O)[C@@H]1O[C@H]1O[C@H](CO)[C@@H](O)[C@H](OC(N)=O)[C@H]1O)c1cnc[nH]1 (stereo partly specified) came out in this test?
active

Hi, do you know how Oc1ccc2c3c1O[C@H]1[C@@H](O)C=C[C@H]4[C@@H](C2)NCC[C@@]341 came out in this test?
inactive

Hi, do you know how O=c1[nH]c2ccc(Cl)cc2c(N[C@@H]2CN3CCC2CC3)c1-c1nc2ccccc2[nH]1 came out in this test?
active

Hi, do you know how COc1cc2cc(c1Cl)N(C)C(=O)C[C@H](OC(=O)C(C)C)[C@]1(C)O[C@H]1[C@H](C)[C@@H]1C[C@@](O)(NC(=O)O1)[C@H](OC)C=CC=C(C)C2 came out in this test?
inactive

Hi, do you know how c1ccc2c(CN3CCNCC3)cccc2c1 came out in this test?
inactive

Hi, do you know how COc1ccc2c(c1)[C@]13CCCCC1C(C2)N(C)CC3 (stereo partly specified) came out in this test?
inactive

Hi, do you know how O=[N+]([O-])c1ncc[nH]1 came out in this test?
inactive

Hi, do you know how O=S(=O)(c1ccc(Cl)cc1)c1ccc(Cl)cc1 came out in this test?
inactive

Hi, do you know how Cc1cc(O)ccc1Cl came out in this test?
inactive

Hi, do you know how c1cc2c(cc1[C@H]1OC[C@H]3[C@H]1CO[C@H]3c1ccc3c(c1)OCO3)OCO2 came out in this test?
inactive

Hi, do you know how CC(Cc1ccc(O)cc1)NCC(O)c1cc(O)cc(O)c1 (stereo unspecified) came out in this test?
inactive

Hi, do you know how C=C1C[C@H]2[C@H]3CCC(=O)[C@@]3(C)CC[C@@H]2[C@@]2(C)C=CC(=O)C=C12 came out in this test?
inactive

Hi, do you know how O=S(=O)(O)C(F)(F)C(F)(F)C(F)(F)C(F)(F)F came out in this test?
inactive

Hi, do you know how CC(C)(C)[C@]1(O)C[C@@H]2OC(=O)C[C@@]23C(=O)O[C@@H]2OC(=O)[C@H](O)C213 (stereo partly specified) came out in this test?
inactive
